Ref: ChEMBL document CHEMBL1137268

biological target: Melanin-concentrating hormone receptor 1 (Rattus norvegicus, UniProt P97639); assay: […] of IP3-coupled mobilization of calcium in HEK293 cells expressing rat MCH-R1; type: functional, cell-based
Sequence (P97639 whole entry): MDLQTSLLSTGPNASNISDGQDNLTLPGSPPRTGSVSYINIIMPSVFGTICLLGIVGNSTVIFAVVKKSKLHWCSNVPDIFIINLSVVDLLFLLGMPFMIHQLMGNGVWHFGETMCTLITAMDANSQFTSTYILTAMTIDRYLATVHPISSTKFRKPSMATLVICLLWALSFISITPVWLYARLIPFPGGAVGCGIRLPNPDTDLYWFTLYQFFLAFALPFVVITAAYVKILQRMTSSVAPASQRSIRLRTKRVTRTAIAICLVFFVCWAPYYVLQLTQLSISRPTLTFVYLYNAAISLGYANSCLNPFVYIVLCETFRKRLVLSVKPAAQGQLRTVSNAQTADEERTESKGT
pEC50: −log10 of the molar value.
property_name: pEC50

CC(=O)NC1CCN(c2ccc3cc(NC(=O)CCc4ccc(C(F)(F)F)cc4)ccc3n2)C1 (stereo not given); 6.36

[1] O=C(CCc1ccc(C(F)(F)F)cc1)Nc1ccc2nc(N3CC4CCC3C4)ccc2c1 (stereo not given)
[2] COC(=O)C1CCCN1c1ccc2cc(NC(=O)CCc3ccc(C(F)(F)F)cc3)ccc2n1 (stereo not given)
[3] CN(c1ccc2cc(NC(=O)CCc3ccc(C(F)(F)F)cc3)ccc2n1)C1CCCC1
Task item: List these items ordered by pEC50, big to small. Form entry: ranked labels (order as requested).
Reply: 1, 3, 2
(1: 6.82, 3: 6.46, 2: 6.24)

[a] O=C(CCc1ccc(C(F)(F)F)cc1)Nc1ccc2nc(N3CCC(c4ccccc4)C3)ccc2c1 (stereo not given)
[b] O=C(CCc1ccc(C(F)(F)F)cc1)Nc1ccc2nc(N3CC4CC3CN4)ccc2c1 (stereo not given)
Task item: Which numeric pEC50 is bigger, that of a or that of b ? Write down the label of the entry you select.
Reply: b
(b: 6.31, a: 5.75)

[a] O=C(CCc1ccc(C(F)(F)F)cc1)Nc1ccc2nc(N3CCCCCC3)ccc2c1
[b] CN(C)c1ccc2cc(NC(=O)CCc3ccc(C(F)(F)F)cc3)ccc2n1
[c] Nc1ccc2cc(NC(=O)CCc3ccc(C(F)(F)F)cc3)ccc2n1
Task item: Order each entry by recorded pEC50, climbing from the minimum. Form entry: ranked labels (order as requested).
Reply: a, c, b
(a: 5.74, c: 6.14, b: 6.96)

---

target: Melanin-concentrating hormone receptor 1 (Rattus norvegicus); assay: […] of IP3-coupled mobilization of calcium in HEK293 cells expressing rat MCH-R1; type: functional, cell-based
pEC50: −log10 of the molar value.
property_name: pEC50

CNc1ccc2cc(NC(=O)CCc3ccc(C(F)(F)F)cc3)ccc2n1; 6.48
CC1CCN(c2ccc3cc(NC(=O)CCc4ccc(C(F)(F)F)cc4)ccc3n2)C1 (stereo unspecified); 6.40
CC1CCCN1c1ccc2cc(NC(=O)CCc3ccc(C(F)(F)F)cc3)ccc2n1 (stereo unspecified); 6.57
O=C(CCc1ccc(C(F)(F)F)cc1)Nc1ccc2nc(N3CCC4(CCNC4)C3)ccc2c1 (stereo unspecified); 6.85

[I] O=C(CCc1ccc(C(F)(F)F)cc1)Nc1ccc2nc(N3CCCCC3)ccc2c1
[II] NC1CCN(c2ccc3cc(NC(=O)CCc4ccc(C(F)(F)F)cc4)ccc3n2)C1 (stereo unspecified)
Task item: Which numeric pEC50 is bigger, that of I or that of II ? Write down the label of the entry you select.
Reply: I

---

target: Melanin-concentrating hormone receptor 1 (Rattus norvegicus, UniProt P97639); assay: […] of IP3-coupled mobilization of calcium in HEK293 cells expressing rat MCH-R1; format: functional, cell-based
property_name: EC50 (nM)

Some molecules with known EC50 results, for comparison:
CC(C)N(C)c1ccc2cc(NC(=O)CCc3ccc(C(F)(F)F)cc3)ccc2n1; 140
O=C(CCCCCCCCCCCCc1ccc(C(F)(F)F)cc1)Nc1ccc2nc([N+]34CCC(CC3)CC4)ccc2c1; 25
O=C(CCc1ccc(C(F)(F)F)cc1)Nc1ccc2nc(N3CCCC3)ccc2c1; 320

[I] CC(C)C(=O)NC1CCN(c2ccc3cc(NC(=O)CCc4ccc(C(F)(F)F)cc4)ccc3n2)C1 (stereo not given)
[II] CN(c1ccc2cc(NC(=O)CCc3ccc(C(F)(F)F)cc3)ccc2n1)C1CCCCC1
Task item: Which numeric EC50 is bigger, that of I or that of II ? Write down the label of the entry you select.
Reply: II
